Measured IC50 (GSK3B (human) (UniProt P49841))
Value expressed in µM; do not type the unit.

# count of solved cases: 2
[
  {
    "recordSmiles": "CN(C)C/C=C/C(=O)Nc1cccc(C(=O)Nc2ccc(Nc3nccc(/C(C#N)=C4\\Nc5ccccc5S4)n3)cc2)c1",
    "readoutUnits": "µM",
    "IC50": 0.084
  },
  {
    "recordSmiles": "CN(C)C/C=C/C(=O)Nc1cccc(C(=O)Nc2ccc(Nc3nccc(-c4cccnc4)n3)cc2)c1",
    "readoutUnits": "µM",
    "IC50": 0.933
  }
]

Consider the additional compound presented here.
Prompt line: Notebook entry, GSK3B (human) (UniProt P49841) assay: IC50 of `CN(C)C/C=C/C(=O)Nc1cccc(C(=O)Nc2ccc(Nc3nccc(-c4c(-c5ccccc5)nn5ccccc45)n3)cc2)c1` = ?
Response line: 0.032

---

Entries and their measured kinase still bound, per cent of control follow.
- targetOrTestSystem: BRSK1 (human) (UniProt Q8TDC3)
- Sequence (Q8TDC3 whole entry, looked up): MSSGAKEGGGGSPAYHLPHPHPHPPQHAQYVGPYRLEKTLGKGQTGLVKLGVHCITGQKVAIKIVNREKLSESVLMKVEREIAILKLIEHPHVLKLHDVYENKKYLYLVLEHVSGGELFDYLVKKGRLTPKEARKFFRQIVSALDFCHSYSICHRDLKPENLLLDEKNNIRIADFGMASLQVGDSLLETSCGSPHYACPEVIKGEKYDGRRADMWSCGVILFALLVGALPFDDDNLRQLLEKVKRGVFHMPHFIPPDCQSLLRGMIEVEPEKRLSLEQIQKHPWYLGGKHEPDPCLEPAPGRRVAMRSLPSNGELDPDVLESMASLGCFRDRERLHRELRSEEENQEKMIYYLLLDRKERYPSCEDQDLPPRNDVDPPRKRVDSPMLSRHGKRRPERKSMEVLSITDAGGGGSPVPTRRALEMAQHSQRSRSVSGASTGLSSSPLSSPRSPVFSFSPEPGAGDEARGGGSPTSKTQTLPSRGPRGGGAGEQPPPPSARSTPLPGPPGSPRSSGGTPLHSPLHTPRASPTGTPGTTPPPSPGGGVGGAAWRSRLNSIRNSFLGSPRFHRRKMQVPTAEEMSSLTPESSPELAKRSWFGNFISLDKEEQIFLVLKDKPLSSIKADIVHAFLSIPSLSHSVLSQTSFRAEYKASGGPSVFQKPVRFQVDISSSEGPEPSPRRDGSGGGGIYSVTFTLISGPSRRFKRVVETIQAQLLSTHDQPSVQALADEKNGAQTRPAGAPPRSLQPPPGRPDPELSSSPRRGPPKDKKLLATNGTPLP
- testDescription: KINOMEscan competition binding
- runParameters: compound 1.0 µM

[
  {
    "recordSmiles": "CN(C)C/C=C/C(=O)Nc1cccc(C(=O)Nc2ccc(Nc3nccc(-c4c(-c5ccccc5)nn5ccccc45)n3)cc2)c1",
    "kinase still bound, per cent of control": "86%"
  }
]

Prompt line: // kinase still bound, per cent of control lookup, key: `CN(C)C/C=C/C(=O)Nc1cccc(C(=O)Nc2ccc(Nc3nccc(-c4cccnc4)n3)cc2)c1`
Response line: 85%

Prompt line: Look up kinase still bound, per cent of control: `CN(C)C/C=C/C(=O)Nc1cccc(C(=O)Nc2ccc(Nc3nccc(/C(C#N)=C4\Nc5ccccc5S4)n3)cc2)c1`
Response line: 90%

Prompt line: What measured kinase still bound, per cent of control goes with `Cc1cc(NC(=O)c2cccc(NC(=O)/C=C/CN(C)C)c2)ccc1Nc1nccc(-c2cccnc2)n1` ?
Response line: 100%

---

- targetOrTestSystem: FGFR2 (human) (UniProt P21802)
- Sequence (P21802 whole entry, looked up): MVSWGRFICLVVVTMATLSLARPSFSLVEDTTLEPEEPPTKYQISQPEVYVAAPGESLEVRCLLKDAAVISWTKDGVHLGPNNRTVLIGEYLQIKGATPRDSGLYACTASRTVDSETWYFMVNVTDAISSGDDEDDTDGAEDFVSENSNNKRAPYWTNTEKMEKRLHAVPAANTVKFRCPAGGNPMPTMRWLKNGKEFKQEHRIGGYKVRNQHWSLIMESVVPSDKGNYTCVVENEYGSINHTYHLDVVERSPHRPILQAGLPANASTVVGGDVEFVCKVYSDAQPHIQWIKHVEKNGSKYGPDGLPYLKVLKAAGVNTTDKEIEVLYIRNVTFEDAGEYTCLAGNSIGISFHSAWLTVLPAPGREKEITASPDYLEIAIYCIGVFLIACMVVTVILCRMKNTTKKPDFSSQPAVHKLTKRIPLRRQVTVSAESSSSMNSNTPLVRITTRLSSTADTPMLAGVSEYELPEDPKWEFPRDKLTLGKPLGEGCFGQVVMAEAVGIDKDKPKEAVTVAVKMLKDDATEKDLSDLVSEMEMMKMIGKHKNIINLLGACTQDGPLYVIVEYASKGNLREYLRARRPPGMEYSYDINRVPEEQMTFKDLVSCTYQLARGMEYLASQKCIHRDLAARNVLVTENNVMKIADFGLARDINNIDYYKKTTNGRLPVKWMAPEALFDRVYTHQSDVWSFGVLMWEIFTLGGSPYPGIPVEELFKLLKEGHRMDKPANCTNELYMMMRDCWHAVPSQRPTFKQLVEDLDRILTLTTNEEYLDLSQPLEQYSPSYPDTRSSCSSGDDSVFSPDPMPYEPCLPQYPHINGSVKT
- testDescription: KINOMEscan competition binding
- runParameters: compound 1.0 µM
measurementName: kinase still bound, per cent of control

[
  {
    "recordSmiles": "CN(C)C/C=C/C(=O)Nc1cccc(C(=O)Nc2ccc(Nc3nccc(-c4c(-c5ccccc5)nn5ccccc45)n3)cc2)c1",
    "kinase still bound, per cent of control": "49%"
  },
  {
    "recordSmiles": "CN(C)C/C=C/C(=O)Nc1cccc(C(=O)Nc2ccc(Nc3nccc(-c4cccnc4)n3)cc2)c1",
    "kinase still bound, per cent of control": "67%"
  },
  {
    "recordSmiles": "Cc1cc(NC(=O)c2cccc(NC(=O)/C=C/CN(C)C)c2)ccc1Nc1nccc(-c2cccnc2)n1",
    "kinase still bound, per cent of control": "79%"
  }
]

Moving on to the next compound.
Prompt line: Give the measured kinase still bound, per cent of control of `CN(C)C/C=C/C(=O)Nc1cccc(C(=O)Nc2ccc(Nc3nccc(/C(C#N)=C4\Nc5ccccc5S4)n3)cc2)c1` .
Response line: 100%

---

- targetOrTestSystem: UniProt:Q04912
- Sequence (Q04912 whole entry, looked up): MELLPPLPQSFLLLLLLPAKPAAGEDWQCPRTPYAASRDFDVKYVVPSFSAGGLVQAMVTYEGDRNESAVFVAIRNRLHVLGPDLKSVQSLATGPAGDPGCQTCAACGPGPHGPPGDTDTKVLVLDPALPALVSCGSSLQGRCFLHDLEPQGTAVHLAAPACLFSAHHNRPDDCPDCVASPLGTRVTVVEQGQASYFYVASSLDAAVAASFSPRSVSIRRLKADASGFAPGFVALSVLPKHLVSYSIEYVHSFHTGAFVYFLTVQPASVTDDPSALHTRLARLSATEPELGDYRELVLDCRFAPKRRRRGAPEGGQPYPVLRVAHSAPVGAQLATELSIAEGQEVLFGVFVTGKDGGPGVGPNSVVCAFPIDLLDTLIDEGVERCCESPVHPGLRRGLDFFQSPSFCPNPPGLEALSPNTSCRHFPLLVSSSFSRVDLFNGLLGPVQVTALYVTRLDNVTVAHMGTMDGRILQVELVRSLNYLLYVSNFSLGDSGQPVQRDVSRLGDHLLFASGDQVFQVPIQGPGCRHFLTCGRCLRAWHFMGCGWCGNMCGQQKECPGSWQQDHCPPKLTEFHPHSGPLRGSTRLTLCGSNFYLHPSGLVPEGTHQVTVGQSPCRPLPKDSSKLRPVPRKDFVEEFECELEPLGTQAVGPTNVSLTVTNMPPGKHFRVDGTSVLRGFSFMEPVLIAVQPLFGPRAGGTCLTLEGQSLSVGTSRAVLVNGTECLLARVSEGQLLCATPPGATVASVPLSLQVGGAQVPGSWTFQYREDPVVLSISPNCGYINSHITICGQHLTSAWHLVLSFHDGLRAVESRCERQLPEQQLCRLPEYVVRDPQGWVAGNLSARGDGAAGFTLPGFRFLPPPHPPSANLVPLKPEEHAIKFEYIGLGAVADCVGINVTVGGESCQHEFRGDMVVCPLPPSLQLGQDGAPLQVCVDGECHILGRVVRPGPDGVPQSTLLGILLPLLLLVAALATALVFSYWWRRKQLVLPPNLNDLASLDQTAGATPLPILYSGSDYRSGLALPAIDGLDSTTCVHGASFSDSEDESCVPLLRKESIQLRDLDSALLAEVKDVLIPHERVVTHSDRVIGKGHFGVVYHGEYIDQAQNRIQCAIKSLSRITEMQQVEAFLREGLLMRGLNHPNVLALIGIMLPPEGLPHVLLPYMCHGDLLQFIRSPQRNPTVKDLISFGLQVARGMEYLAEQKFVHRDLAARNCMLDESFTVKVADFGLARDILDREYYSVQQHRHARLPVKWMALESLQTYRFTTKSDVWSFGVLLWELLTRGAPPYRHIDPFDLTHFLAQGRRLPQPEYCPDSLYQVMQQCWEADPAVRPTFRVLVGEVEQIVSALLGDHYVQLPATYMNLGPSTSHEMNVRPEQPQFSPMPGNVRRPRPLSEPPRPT
- testDescription: KINOMEscan competition binding
- runParameters: compound 1.0 µM
Each item that follows carries a reported kinase still bound, per cent of control.

Illustrative cases are given below, each with its answer.
[
  {
    "recordSmiles": "Cc1cc(NC(=O)c2cccc(NC(=O)/C=C/CN(C)C)c2)ccc1Nc1nccc(-c2cccnc2)n1",
    "experimentalResult": "100%"
  },
  {
    "recordSmiles": "CN(C)C/C=C/C(=O)Nc1cccc(C(=O)Nc2ccc(Nc3nccc(-c4cccnc4)n3)cc2)c1",
    "experimentalResult": "100%"
  },
  {
    "recordSmiles": "CN(C)C/C=C/C(=O)Nc1cccc(C(=O)Nc2ccc(Nc3nccc(/C(C#N)=C4\\Nc5ccccc5S4)n3)cc2)c1",
    "experimentalResult": "100%"
  }
]

Next up:
Prompt line: Look at this compound and give its reported kinase still bound, per cent of control. `CN(C)C/C=C/C(=O)Nc1cccc(C(=O)Nc2ccc(Nc3nccc(-c4c(-c5ccccc5)nn5ccccc45)n3)cc2)c1`
Response line: 100%
